Test system: Mycosphaerella graminicola; Anamorph: Septoria tritici; Bayer Code SEPTTR
Protocol Summary: Leaf blotch of wheat, foliar fungicide treatment, one day protectant (1DP) or three day curative (3DC)
Format: in vivo, Septoria tritici on wheat plants (variety Yuma)
Test Context: Zymoseptoria tritici, 72 h, three day curative (3DC), 25 ppm, percent control rating, read-out: SEPTTR 3DC 25 ppm
Measured Endpoint: pest or weed control at 25 ppm

*Q* # return recorded pest or weed control at 25 ppm for entry CCCCCOC(=O)Nc1nc(OCc2ccccc2)ncc1F [Compound 982]
*A* 76 to 100%

*Q* Read the entry CC(C)(C)NC(=O)Nc1nc(O)ncc1F [Compound 975] and write its reported pest or weed control at 25 ppm.
*A* 0 to 25%

*Q* // Input: Fc1ccc(COc2ncc(F)c(/N=N/c3ccc(Cl)c(Cl)c3)n2)cc1 [Compound 1090] . Output its pest or weed control at 25 ppm only.
*A* 26 to 50%

*Q* Tell me pest or weed control at 25 ppm reported for C/C(=N\Oc1ncc(F)c(N)n1)c1ccc(Cl)cc1 [Compound 1000]
*A* 76 to 100%

*Q* Please list pest or weed control at 25 ppm recorded for the compound CCCCCOC(=O)Nc1nc(OCc2cccc(OC)c2)ncc1F [Compound 988]
*A* 76 to 100%

*Q* Hello, please tell me recorded pest or weed control at 25 ppm for this one: Cc1ccc(COc2ncc(F)c(NNc3ccc(Cl)nn3)n2)cc1 [Compound 1040]
*A* 0 to 25%

*Q* Quote pest or weed control at 25 ppm reported for C=CCOc1ncc(F)c(N/N=C/c2ccco2)n1 [Compound 1064] please.
*A* 0 to 25%

*Q* Look up and state reported pest or weed control at 25 ppm for C/C(=N\Oc1ncc(F)c(N)n1)c1cnc(OCC(F)(F)F)nc1 [Compound 1001]
*A* 26 to 50%

*Q* Provide measured pest or weed control at 25 ppm value, entry: CN(C)/C=N/c1nc(OCOC(=O)c2ccccc2)ncc1F [Compound 1085]
*A* 76 to 100%
